Field: IC50. Provide a value for each of the molecules that follow.
# assay target: Recombinant STAT6 protein (STAT6(W123-T658)) (Homo sapiens, UniProt P42226)
# Construct: Recombinant STAT6 protein (STAT6(W123-T658))
# Sequence (P42226 123-658): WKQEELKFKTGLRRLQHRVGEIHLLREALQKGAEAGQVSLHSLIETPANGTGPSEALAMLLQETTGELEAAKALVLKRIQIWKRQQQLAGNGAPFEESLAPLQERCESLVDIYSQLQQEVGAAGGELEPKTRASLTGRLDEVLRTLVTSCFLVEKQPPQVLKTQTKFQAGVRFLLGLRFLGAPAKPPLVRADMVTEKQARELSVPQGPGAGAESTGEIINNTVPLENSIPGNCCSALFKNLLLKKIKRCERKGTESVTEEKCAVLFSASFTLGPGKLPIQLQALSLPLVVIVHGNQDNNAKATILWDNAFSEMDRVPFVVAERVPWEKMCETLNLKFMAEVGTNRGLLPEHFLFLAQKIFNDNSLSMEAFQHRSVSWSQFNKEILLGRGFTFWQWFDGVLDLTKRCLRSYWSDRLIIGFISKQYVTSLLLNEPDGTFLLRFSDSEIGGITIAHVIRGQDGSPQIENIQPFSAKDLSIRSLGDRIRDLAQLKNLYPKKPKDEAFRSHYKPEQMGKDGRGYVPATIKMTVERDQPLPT
# procedure summary: STAT6 Fluorescence Polarization (FP) Assay
# condition description: STAT6(W123-T658) 250 nM, probe 5-FAM-ApYKPFQDLI-NH2 2 nM, 45-minute incubation

Ask: Would you mind telling me what IC50 value was observed for CC(=O)N1CC[C@H]2CC[C@@H](C(=O)N3C[C@@H](O)[C@H](n4ccnn4)C3)N2C(=O)[C@@H](NC(=O)c2ccc3ccc(C(F)(F)P(=O)(O)O)cc3c2)C1 (relative stereo) [Compound 5] ?
Reply: 0.3 to 3 µM

Ask: Can you check CN(C(=O)[C@@H]1CC[C@@H]2CCN(CC(F)F)C[C@H](NC(=O)c3ccc4ccc(C(F)(F)P(=O)(O)O)cc4c3)C(=O)N21)C1CCN(S(C)(=O)=O)CC1 [Compound 244] next?
Reply: 0.3 to 3 µM

Ask: Entry CCN(C)CCCN(C)C(=O)[C@@H]1CC[C@@H]2CCN(C(C)=O)C[C@H](NC(=O)c3cc4cc(C(F)(F)P(=O)(O)O)ccc4[nH]3)C(=O)N21 [Compound 33] please
Reply: 3 to 30 µM

Ask: # iterate: CC(=O)N1CC[C@H]2CC[C@@H](C(=O)N(C)c3ccccc3)N2C(=O)[C@@H](NC(=O)/C(C)=C/c2cccc(C(F)(F)P(=O)(O)O)c2)C1 [Compound 45]
Reply: > 30 µM

Ask: How about CC(=O)N1CC[C@H]2CC[C@@H](C(=O)N(C)c3ccc(C#N)cc3)N2C(=O)[C@@H](NC(=O)c2cc3cc(C(F)(F)P(=O)(O)O)ccc3[nH]2)C1 [Compound 168] ?
Reply: 0.3 to 3 µM

Ask: Do the same for CC(=O)N1CC[C@H]2CC[C@@H](C(=O)N(C)[C@H]3CN(C(C)=O)C[C@@H]3O)N2C(=O)[C@@H](NC(=O)c2cc3cc(C(F)(F)P(=O)(O)O)ccc3s2)C1 [Compound 183] please
Reply: 0.3 to 3 µM

Ask: Next entry: CC(=O)N1CC[C@H]2CC[C@@H](C(=O)N3CC4CCS(=O)(=O)CC4C3)N2C(=O)[C@@H](NC(=O)c2cc3cc(C(F)(F)P(=O)(O)O)ccc3s2)C1 (some centres unmarked) [Compound 80]
Reply: 0.3 to 3 µM

Ask: What about CC(=O)N1CC[C@H]2CC[C@@H](C(=O)N3C[C@H](c4cc[nH]c(=O)c4)[C@@H](C#N)C3)N2C(=O)[C@@H](NC(=O)c2ccc3ccc(C(F)(F)P(=O)(O)O)cc3c2)C1 (single isomer, unassigned) [Compound 38] ?
Reply: ≤ 0.3 µM

Ask: Do the same for CC(=O)N1CC[C@H]2CC[C@@H](C(=O)N3CCC(C(N)=O)c4cc(-c5ccccc5)ccc43)N2C(=O)[C@@H](NC(=O)c2cc3cc(C(F)(F)P(=O)(O)O)ccc3s2)C1 (some centres unmarked) [Compound 116] please
Reply: 0.3 to 3 µM

Ask: Try this molecule too: CC(=O)N1CC[C@H]2CC[C@@H](C(=O)N3CC(C(=O)N4CCOCC4)C3)N2C(=O)[C@@H](NC(=O)c2cc3cc(C(F)(F)P(=O)(O)O)ccc3s2)C1 [Compound 77]
Reply: 3 to 30 µM

Ask: Same read-out for CC(C)CN1CC[C@H]2CC[C@@H](C(=O)N3C[C@@H](C#N)[C@H](c4ccccc4)C3)N2C(=O)[C@@H](NC(=O)c2cc3cc(C(F)(F)P(=O)(O)O)ccc3s2)C1 (relative stereo) [Compound 279] ?
Reply: ≤ 0.3 µM

Ask: What about this molecule? N#C[C@@H]1CN(C(=O)[C@@H]2CC[C@@H]3CCN(CC(F)F)C[C@H](NC(=O)c4cc5cc(C(F)P(=O)(O)O)ccc5s4)C(=O)N32)C[C@H]1c1ccccc1 (some centres unmarked) [Compound 395]
Reply: ≤ 0.3 µM

Ask: Can you check CC(=O)N1CC[C@H]2CC[C@@H](C(=O)Nc3ccc(-c4ccccc4)cc3Cc3nccs3)N2C(=O)[C@@H](NC(=O)c2cc3cc(C(F)(F)P(=O)(O)O)ccc3s2)C1 [Compound 196] next?
Reply: 0.3 to 3 µM

Ask: # iterate: Cc1ccc2[nH]nc(C(=O)N3CC[C@H]4CC[C@@H](C(=O)N(C)C)N4C(=O)[C@@H](NC(=O)c4cc5cc(C(F)(F)P(=O)(O)O)ccc5s4)C3)c2c1 [Compound 231]
Reply: ≤ 0.3 µM

Ask: Follow-up entry: CC(=O)N1CC[C@H]2CC[C@@H](C(=O)N(C)c3ccccc3)N2C(=O)[C@@H](NC(=O)c2cc3cc(C(C)(C)P(=O)(O)O)ccc3s2)C1 [Compound 21]
Reply: > 30 µM

Ask: Next molecule up: CC(=O)N1CC[C@H]2CC[C@@H](C(=O)N[C@H]3CN(C(C)=O)C[C@@H]3O)N2C(=O)[C@@H](NC(=O)c2cc3cc(C(F)(F)P(=O)(O)O)ccc3s2)C1 [Compound 182]
Reply: 0.3 to 3 µM

Ask: For CC(=O)N1CC[C@H]2CC[C@@H](C(=O)N3C[C@@H](C#N)[C@@H]3c3ccccc3)N2C(=O)[C@@H](NC(=O)c2cc3cc(C(F)(F)P(=O)(O)O)ccc3s2)C1 (relative stereo) [Compound 204] then?
Reply: 0.3 to 3 µM

Ask: Now the same for CCN1CC[C@H](NC(=O)c2ccc3ccc(C(F)(F)P(=O)(O)O)cc3c2)C(=O)N2[C@H](CC[C@H]2C(=O)N2C[C@H](c3ccccc3)[C@@H](C#N)C2)C1 (relative stereo) [Compound 227]
Reply: ≤ 0.3 µM

Ask: And what about the molecule Cc1cc(Cl)cc(C(=O)N2CC[C@H](NC(=O)c3ccc4ccc(C(F)P(=O)(O)O)cc4c3)C(=O)N3[C@H](CC[C@H]3C(=O)N3CCOCC3)C2)c1 (some centres unmarked) [Compound 389] ?
Reply: 0.3 to 3 µM

Ask: // query: CC(=O)N1CC[C@H]2CC[C@@H](C(=O)N(C)c3ccc(OC(F)(F)F)cc3)N2C(=O)[C@@H](NC(=O)c2cc3cc(C(F)(F)P(=O)(O)O)ccc3[nH]2)C1 [Compound 135]
Reply: 0.3 to 3 µM

---

Hi there, I'd appreciate the recorded pIC50 for every entry that follows.
# assay target: Recombinant STAT6 protein (STAT6(W123-T658)) (Homo sapiens)
# Construct: Recombinant STAT6 protein (STAT6(W123-T658))
# Sequence (P42226 123-658): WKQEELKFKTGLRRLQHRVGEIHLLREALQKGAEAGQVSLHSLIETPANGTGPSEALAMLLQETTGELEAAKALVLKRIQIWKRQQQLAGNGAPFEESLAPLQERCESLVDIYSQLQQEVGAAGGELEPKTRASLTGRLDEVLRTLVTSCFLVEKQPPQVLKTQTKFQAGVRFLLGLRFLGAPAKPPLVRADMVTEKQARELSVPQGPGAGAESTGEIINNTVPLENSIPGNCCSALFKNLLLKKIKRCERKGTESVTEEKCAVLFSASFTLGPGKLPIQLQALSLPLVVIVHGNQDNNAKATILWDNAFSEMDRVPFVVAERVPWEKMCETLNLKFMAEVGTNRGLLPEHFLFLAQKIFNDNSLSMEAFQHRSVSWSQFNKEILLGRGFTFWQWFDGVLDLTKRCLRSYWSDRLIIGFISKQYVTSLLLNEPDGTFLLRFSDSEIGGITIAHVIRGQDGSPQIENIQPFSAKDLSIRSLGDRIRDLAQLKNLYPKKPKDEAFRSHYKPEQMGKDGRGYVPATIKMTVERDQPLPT
# procedure summary: STAT6 Fluorescence Polarization (FP) Assay
# condition description: STAT6(W123-T658) 250 nM, probe 5-FAM-ApYKPFQDLI-NH2 2 nM, 45-minute incubation
# Procedure: STAT6 Fluorescence Polarization (FP) Assay An FP assay was developed to determine IC50 values for test substances. […] Reaction components were mixed, and FP was measured after 45-minute incubation at room temperature using a Tecan Spark multimode plate reader. FP signal (mP) was plotted against the log concentration of the test substances and IC50 values were calculated by nonlinear regression analysis using GraphPad Prism software. […]
pIC50: −log10 of the molar value.

Ask: Bench note: what pIC50 did CC(=O)N1CC[C@H]2CC[C@@H](C(=O)N(C)c3ccccc3)N2C(=O)[C@@H](NC(=O)c2cc3cc(C(CO)P(=O)(O)O)ccc3s2)C1 (some centres unmarked) show?
Reply: < 4.52

Ask: What would you report for CC(=O)N1CC[C@H]2CC[C@@H](C(=O)N3CC[C@@H](c4ccccc4)[C@H](C#N)C3)N2C(=O)[C@@H](NC(=O)c2cc3cc(C(F)(F)P(=O)(O)O)ccc3s2)C1 (relative stereo) ?
Reply: 5.52 to 6.52

Ask: Moving on to `CC(=O)N1CC[C@H]2CC[C@@H](C(=O)N(C)c3ccc4nnccc4c3)N2C(=O)[C@@H](NC(=O)c2cc3cc(C(F)(F)P(=O)(O)O)ccc3s2)C1`
Reply: ≥ 6.52

Ask: Entry to check: `CC(=O)N1CC[C@H]2CC[C@@H](C(=O)N(C)c3ccc(N4CCOCC4)cc3)N2C(=O)[C@@H](NC(=O)c2cc3cc(C(F)(F)P(=O)(O)O)ccc3s2)C1`
Reply: 5.52 to 6.52

Ask: And what about the compound Cc1ccc2cc(C(=O)N3CC[C@H]4CC[C@@H](C(=O)N5CCOCC5)N4C(=O)[C@@H](NC(=O)c4ccc5ccc(C(F)P(=O)(O)O)cc5c4)C3)cc(Cl)c2n1 (some centres unmarked) ?
Reply: 5.52 to 6.52
